Assay: Cytotoxicity of unconjugated tubulysins to cells in culture
Assay type: cell-based
Conditions: cells in culture (cell line not given); read-out: typical IC50, cytotoxic to cells in culture
pIC50: −log10 of the molar value.
property.name: pIC50

Param item = CCCC(=O)OCN(C(=O)[C@@H](NC(=O)[C@H]1CCCCN1C)C(C)CC)[C@H](C[C@@H](OC(C)=O)c1nc(C(=O)N[C@@H](Cc2ccc(O)cc2)C[C@H](C)C(=O)NN)cs1)C(C)C (stereo partly shown) [TubB-H, reference compound] ; retrieve measured pIC50.
~9.00
